Experiment: melting temperature; fluorescence melt of hairpins on a sequencing array, two-state fit, raised by 9.35 °C to match UV melts
Conditions: sodium 0.088 M
Rule: Tm under 50 °C gives class 0, otherwise class 1.

Request: Check if Tm >= 50 °C (inclusive). Item: GCAGCGCGAAAGCCATGC (((..((....))..)))
Result: class 0

Request: Ok, now GGGCGTCCGAAAGGACCC (((..(((....))))))
Result: class 1

Request: Ok, now GCGGTCGAAAGACGACGC ((((((....)))..)))
Result: class 1

Request: Ok, now GATCTTCATTAAGATC ((((((....))))))
Result: class 0

Request: Ok, now GCCAATCCGAAAGGAGGC (((..(((....))))))
Result: class 0

Request: Ok, now GATCAGAGTCTGATC ((((((...))))))
Result: class 0

Request: Ok, now GTATTTCGAAAGAAGTAC (((.(((....))).)))
Result: class 0

Request: Ok, now GCAGCCCCGAAAGGGTGC (((..(((....))))))
Result: class 1

Request: Ok, now GCACACCGAAAGGTTTGC (((.(((....))).)))
Result: class 1

====

folding enthalpy: recorded values
Test: folding enthalpy; higher = less favourable; fluorescence melt of hairpins on a sequencing array, two-state fit
Conditions: sodium 0.088 M
Write the number in kcal/mol without appending the unit.

Recorded results for 4 sequences are shown here.
1. GATCGTTCTGACGATC ((((((....))))))    -44.4
2. GATCGAAGCGTCGATC ((((((....))))))    -39.9
3. GTCTGCGGAAACGTAGGC (.((.((....)).)).)    -26.7
4. GAGGTAGGAAACTGCCTC ((((.((....)).))))    -37.1

Okay, now this sequence:
Request: Field request: folding enthalpy | item: GGTAAGACGAAAGTCACC (((..(((....))))))
Result: -16.2

====

Assay: folding enthalpy; higher = less favourable; fluorescence melt of hairpins on a sequencing array, two-state fit
Details: sodium 0.088 M
Rule: folding enthalpy under -30 kcal/mol gives not satisfied, otherwise satisfied.

See these solved cases before continuing.
1) GATCCCCTAGGGGATC ((((((....))))))    not satisfied
2) GGATATGAAAATATCC ((((((....))))))    not satisfied
3) GATCGGTCATCCGATC ((((((....))))))    not satisfied

Request: Check if folding enthalpy >= -30 kcal/mol (inclusive). Item: GCTTCAGGAAACTGAGGC ((.((((....)))).))
Result: not satisfied

Request: Ok, now GATCGCCCTCGCGATC ((((((....))))))
Result: satisfied

Request: Ok, now GCCGGGGCGAAAGCCGGC (((..(((....))))))
Result: satisfied

====

Test: melting temperature; fluorescence melt of hairpins on a sequencing array, two-state fit, raised by 9.35 °C to match UV melts
Conditions: sodium 0.088 M
Endpoint: Tm (°C)
Write the number in °C without appending the unit.

1) GCGTACAGACGC ((((....))))    51
2) GAACACGAAAGTGGATTC ((((((....)))..)))    39.8
3) GTACCCGAAAGGGAGTAC ((((((....)))..)))    39.9
4) GCTCTGCCGAAAGGCAGC (((..(((....))))))    40

Okay, now this sequence:
Request: Field request: Tm | item: GGCGTCGAAAGACGTGCC ((((((....)))..)))
Result: 51.1
